Recorded values, source patent US20030162777A1.

Biological target: human 5HT1A-serotonergic receptor (Homo sapiens, UniProt P08908)
Construct: cell membranes used
Assay: Radioligand binding to recombinant 5-HT1A receptors
Conditions: [3H]8-OH-DPAT 1 nM, membranes of HeLa cells with human 5-HT1A receptor; Ki from IC50 by Cheng & Prusoff; read-out: Binding affinity for 5HT1A receptors, Ki
pKi values, listed per item
In plain terms, pKi is the concentration in mol/L turned into minus its base-10 logarithm.

A selection of reference data follows.
O=C1CC[C@H](C(=O)N2c3ccccc3CCC2CN2CCN(c3cccc4[nH]ccc34)CC2)N1 (stereo partly shown) [Example 68A73] ... 7.75
COc1ccc(C#N)cc1N1CCN(CC2CCc3ccccc3N2C(=O)C2CCCCC2)CC1 (stereo not shown) [Example 35A24] ... 7.94
COc1cc(F)ccc1N1CCN(CC2CCc3ccccc3N2C(=O)Cc2ccsc2)CC1 (stereo not shown) [Example 74A9] ... 7.42
O=C(C1CCCCC1)N1c2ccccc2CCC1CN1CCN(c2cc(Cl)ccc2Cl)CC1 (stereo not shown) [Example 35A19] ... 8.28
CCCCCNC(=O)N1c2ccccc2CCC1CN1CCN(c2cccc3[nH]ccc23)CC1 (stereo not shown) [Example 69A11] ... 7.98
Cc1ccc2c(c1)CCC(CN1CCN(c3cccc4[nH]ccc34)CC1)N2C(=O)C1CCCCC1 (stereo not shown) [Example 32] ... 8.55

Please fill in: pKi reported for CCOc1ccc(C(=O)N2c3ccccc3CCC2CN2CCN(c3cccc4[nH]ccc34)CC2)cc1 (stereo not shown) [Example 68A69] = 8.38

Form field pKi, entry COc1ccc(S(=O)(=O)N2c3ccccc3CCC2CN2CCN(c3cccc4[nH]ccc34)CC2)cc1 (stereo not shown) [Example 70A2] : 7.73

Given item Cc1ccc(NC(=O)N2c3ccccc3CCC2CN2CCN(c3cccc4[nH]ccc34)CC2)cc1 (stereo not shown) [Example 69A3] , the value recorded as its pKi is 8.03

The measured pKi associated with O=C(Cc1cccs1)N1c2ccccc2CCC1CN1CCN(c2cccc3[nH]ccc23)CC1 (stereo not shown) [Example 68A39] reads 8.17

# compound O=C(Cc1ccsc1)N1c2ccccc2CCC1CN1CCN(c2nccc3ccccc23)CC1 (stereo not shown) [Example 75A9] ; its pKi = 7.79

// field: pKi; key: O=C(C1CCC1)N1c2ccccc2CCC1CN1CCN(c2nccc3ccccc23)CC1 (stereo not shown) [Example 75A10] ; value = 7.58

Note to self: pKi recorded for Cn1cc(C(=O)N2c3ccccc3CCC2CN2CCN(c3cccc4[nH]ccc34)CC2)c2ccccc21 (stereo not shown) [Example 68A47] was 7.77

pKi reading for O=C(CCOCc1ccccc1)N1c2ccccc2CCC1CN1CCN(c2cccc3[nH]ccc23)CC1 (stereo not shown) [Example 9] : 8.02

The compound listed as O=C(C1CCCCC1)N1c2ccccc2CCC1CN1CCN(c2ccc(Cl)cc2Cl)CC1 (stereo not shown) [Example 35A9] shows pKi equal to 7.40

Looking up COc1ccc(C(=O)N2c3ccccc3CCC2CN2CCN(c3cccc4c3OCCO4)CC2)cc1 (stereo not shown) [Example 76A4] , I found its pKi recorded as 8.41

====

Target: human 5HT1A-serotonergic receptor (Homo sapiens, UniProt P08908)
Construct: cell membranes used
Assay: Radioligand binding to recombinant 5-HT1A receptors
Details: [3H]8-OH-DPAT 1 nM, membranes of HeLa cells with human 5-HT1A receptor; Ki from IC50 by Cheng & Prusoff; read-out: Binding affinity for 5HT1A receptors, Ki
Each record here notes measured pKi.
By convention, pKi is the negative base-10 log of a molar concentration.

Below: 3 compounds and their reported pKi.
N#Cc1ccc(Cl)cc1N1CCN(CC2CCc3ccccc3N2C(=O)C2CCCCC2)CC1 (stereo not shown) [Example 35A23] ... 8.51
Cc1ccc(C(=O)N2c3ccccc3CCC2CN2CCN(c3cccc4[nH]ccc34)CC2)cc1 (stereo not shown) [Example 68A70] ... 8.28
CS(=O)(=O)N(CC(=O)N1c2ccccc2CCC1CN1CCN(c2cccc3[nH]ccc23)CC1)Cc1ccccc1 (stereo not shown) [Example 68A71] ... 7.63

Proceeding to the next compound to report its pKi.
GET /values?item= COc1cc(F)ccc1N1CCN(CC2CCc3ccccc3N2C(=O)CC(C)(C)C)CC1 (stereo not shown) [Example 74A1] &system= human 5HT1A-serotonergic receptor (Homo sapiens, UniProt P08908) returns pKi: 8.70

====

The reader will find reported log10 of Ki values listed item by item below.
Target: human 5HT1A-serotonergic receptor (Homo sapiens)
Construct: cell membranes used
Test: Radioligand binding to recombinant 5-HT1A receptors
Details: [3H]8-OH-DPAT 1 nM, membranes of HeLa cells with human 5-HT1A receptor; Ki from IC50 by Cheng & Prusoff; read-out: Binding affinity for 5HT1A receptors, Ki
Scale: decimal log of Ki, Ki in nM.

Record excerpt, results attached:
Cc1ccc(S(=O)(=O)N2c3ccccc3CCC2CN2CCN(c3cccc4[nH]ccc34)CC2)cc1 (stereo not drawn) [Example 70A3] ... 1.18
O=C(Cc1ccccc1)N1c2ccccc2CCC1CN1CCN(c2cccc3[nH]ccc23)CC1 (stereo not drawn) [Example 68A2] ... 1.14
N#Cc1ccc(C(=O)N2c3ccccc3CCC2CN2CCN(c3nccc4ccccc34)CC2)cc1 (stereo not drawn) [Example 75A6] ... 0.63
COc1ccc(NC(=O)N2c3ccccc3CCC2CN2CCN(c3cccc4[nH]ccc34)CC2)cc1 (stereo not drawn) [Example 69A13] ... 1.33

log10 of Ki recorded for this molecule, O=C(c1cccs1)N1c2ccccc2CCC1CN1CCN(c2cccc3[nH]ccc23)CC1 (stereo not drawn) [Example 68A19] , is 0.61

Consider C[C@@H](NC(=O)N1c2ccccc2CCC1CN1CCN(c2cccc3[nH]ccc23)CC1)c1ccccc1 (single isomer, unassigned) [Example 69A5] . Its measured log10 of Ki is 1.20

For record COCCC(=O)N1c2ccccc2CCC1CN1CCN(c2cccc3[nH]ccc23)CC1 (stereo not drawn) [Example 11] the listed log10 of Ki is 1.61

The reported log10 of Ki of the molecule O=C(C1CCCCC1)N1c2ccccc2CCC1CN1CCN(c2cccc3[nH]ccc23)CC1 (single isomer, unassigned; (+)) [Example (+)-1] was -0.70

What the record says about O=C(C1CCCCC1)N1c2ccccc2CCC1CN1CCC(c2ccccc2C(F)(F)F)CC1 (stereo not drawn) [Example 72A81] : log10 of Ki is 1.41

log10 of Ki measured on O=C(c1ccc(C(F)(F)F)cc1)N1c2ccccc2CCC1CN1CCN(c2cccc3[nH]ccc23)CC1 (stereo not drawn) [Example 68A23] = 1.63

Input O=C(C1CCCCC1)N1c2ccccc2CCC1CN1CCN(c2cccc(Cl)n2)CC1 (stereo not drawn) [Example 72A65] . Output log10 of Ki: 1.19

====

Target: human 5HT1A-serotonergic receptor (Homo sapiens)
Construct: cell membranes used
Sequence (P08908 1-422): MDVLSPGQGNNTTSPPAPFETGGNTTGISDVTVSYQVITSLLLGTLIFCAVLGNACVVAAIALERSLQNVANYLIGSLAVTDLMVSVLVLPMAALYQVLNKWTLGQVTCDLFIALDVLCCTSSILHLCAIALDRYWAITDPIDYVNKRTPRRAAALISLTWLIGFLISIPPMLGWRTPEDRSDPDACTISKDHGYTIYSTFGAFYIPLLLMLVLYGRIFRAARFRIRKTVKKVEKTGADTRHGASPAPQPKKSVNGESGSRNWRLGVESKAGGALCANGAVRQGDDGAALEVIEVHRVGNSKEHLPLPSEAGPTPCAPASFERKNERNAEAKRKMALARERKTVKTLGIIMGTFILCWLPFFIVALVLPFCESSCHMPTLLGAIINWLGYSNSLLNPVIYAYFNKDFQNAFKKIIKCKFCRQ
Test: Radioligand binding to recombinant 5-HT1A receptors
Settings: [3H]8-OH-DPAT 1 nM, membranes of HeLa cells with human 5-HT1A receptor; Ki from IC50 by Cheng & Prusoff; read-out: Binding affinity for 5HT1A receptors, Ki
pKi: −log10 of the molar value.
The threshold is inclusive: pKi of exactly 8 counts as y; values below receive n.

O=C(Cc1ccc(C(F)(F)F)cc1)N1c2ccccc2CCC1CN1CCN(c2cccc3[nH]ccc23)CC1 (centres unmarked) ... n
CN(CCOc1ccccc1OCC(F)(F)F)CC1CCc2ccccc2N1C(=O)C1CCCCC1 (centres unmarked) ... y
O=C(CC1CC1)N1c2ccccc2CCC1CN1CCN(c2cccc3c2OCCO3)CC1 (centres unmarked) ... y
CC(C)(C)OC(=O)N1CCC(C(=O)N2c3ccccc3CCC2CN2CCN(c3cccc4[nH]ccc34)CC2)CC1 (centres unmarked) ... n
O=C(C1CCCCC1)N1c2c(F)cccc2CCC1CN1CCN(c2cccc3[nH]ccc23)CC1 (centres unmarked) ... n
Cc1oc(S(=O)(=O)N2CCOCC2)cc1C(=O)N1c2ccccc2CCC1CN1CCN(c2cccc3[nH]ccc23)CC1 (centres unmarked) ... n
O=S(=O)(c1cccs1)N1c2ccccc2CCC1CN1CCN(c2cccc3[nH]ccc23)CC1 (centres unmarked) ... n
COc1cc(F)ccc1N1CCN(CC2CCc3cc(-c4ccc(C(C)=O)s4)ccc3N2C(=O)C2CCCCC2)CC1 (centres unmarked) ... n
O=C(CCc1cccnc1)N1c2ccccc2CCC1CN1CCN(c2cccc3[nH]ccc23)CC1 (centres unmarked) ... n
COc1ccc(CC(=O)N2c3ccccc3CCC2CN2CCN(c3cccc4[nH]ccc34)CC2)cc1 (centres unmarked) ... n

Determine whether measured pKi meets or exceeds 8 for Cc1ccc(Cl)cc1N1CCN(CC2CCc3ccccc3N2C(=O)C2CCCCC2)CC1 (centres unmarked)
n
